Observed pIC50 for UniProt Q13822, reported per entry below.
pIC50: −log10 of the molar value.
QUANTITY: pIC50

// known answers, use as guide
Query: pIC50; subject: Cc1cc(OCc2n[nH]c3c2CN(C(=O)OC(C)(C)C)CC3)c(C(C)(C)C)cc1Cl [Example E1]
6.13

Try this compound too: Cc1cc(OCc2n[nH]c(=O)n2C)c(-c2cccc(C#N)c2)cc1Cl
8.52

Try this compound too: CC(C)(C)c1cc(Cl)c(F)cc1OCc1n[nH]c2cccnc12
7.74

Try this compound too: Cn1c(COc2cc(Cl)c(C#N)cc2-c2ccccc2F)n[nH]c1=O
7.72

Try this compound too: Cc1cc(OCc2n[nH]c3cnccc23)c(-c2cc(C(=O)N3CCN(C)C(=O)C3)ccc2F)cc1Cl
8.05

Try this compound too: Cn1c(COc2cc(Cl)c(C#N)cc2-c2cccc(-c3cc[nH]n3)c2)n[nH]c1=O
7.29

Try this compound too: Cc1cc(OCc2cc[nH]n2)c(C(C)(C)C)cc1Cl
7.57

Try this compound too: COc1ncccc1-c1cc(Cl)c(C)cc1OCc1n[nH]c(=O)n1C
7.38

[A] COCCNC(=O)c1cccc(-c2cc(Cl)c(C)cc2OCc2n[nH]c(=O)n2C)c1
[B] CC(=O)N1CCc2[nH]nc(COc3cc(C)c(Cl)cc3C(C)(C)C)c2C1 [Example E2]
Please compare: A and B . Report which one has the smaller pIC50 value. Please identify the chosen entry by its label.
B
(B: 4.38, A: 7.80)

Hello, the source for this data is patent US11352330B2, in case you need it.
